These measurements were taken from the supplement of paper PMC10724198.

Reported values of protein stability index for individual entries
- Tested on: Saccharomyces cerevisiae
- TEST METHOD NOTES: protein stability index of tFT-peptide fusion (C-terminal peptide) (PSI (0-1 scale)); higher = more stable (slower turnover)
- ASSAY CONDITIONS: genetic background: wild type; temperature: 30 C
RESULT TYPE: protein stability index

INSERT INTO measurements (sequence, subject_of_test, recorded_value) VALUES
  ('HSHTHRHSHGTR', 'Saccharomyces cerevisiae', 0.7),
  ('QIGKQAAATGTA', 'Saccharomyces cerevisiae', 0.708),
  ('RIAPSLPPSSFL', 'Saccharomyces cerevisiae', 0.688),
  ('WGEKTRKVQGCG', 'Saccharomyces cerevisiae', 0.695);

---

- System: Saccharomyces cerevisiae
- TEST METHOD NOTES: protein stability index of tFT-peptide fusion (C-terminal peptide) (PSI (0-1 scale)); higher = more stable (slower turnover)
- ASSAY CONDITIONS: genetic background: wild type; temperature: 30 C
Reported values of protein stability index for individual entries
RESULT TYPE: protein stability index

INSERT INTO measurements (sequence, recorded_value) VALUES
  ('KRKKTRNKNGKG', 0.627),
  ('QEWAQYTHSEQP', 0.735),
  ('SFSRFFAIRPSF', 0.723),
  ('PRFPLPLPPPSP', 0.736),
  ('FPSTPRPPLPPP', 0.668),
  ('LASCAFQFLASC', 0.691),
  ('RGRRRGGQQIAE', 0.666),
  ('RRLFGLGWDVKI', 0.718),
  ('LRPPLRPRPIPL', 0.698),
  ('MGMSAGCGGWSG', 0.687),
  ('CCLSGGFFLFGL', 0.622),
  ('PFLFPLLSPFSV', 0.681),
  ('NNSLPTDVDKYL', 0.683),
  ('SKKLSMNIIITN', 0.653),
  ('QIHGQKNFKTLD', 0.704),
  ('QWAAVCAVVGGG', 0.684),
  ('KRKPEHKSAAEE', 0.669),
  ('RLPGLTHFLPKI', 0.654),
  ('RQGMGPKLVKHQ', 0.633),
  ('NRVRVNSSYGRD', 0.71),
  ('VEVGAWMVGCSE', 0.611),
  ('GGSNEKARGTGR', 0.654),
  ('GEGISCLLRRLT', 0.413),
  ('LVVSPPPLPFPS', 0.689);

---

Reported values of protein stability index for individual entries
- Tested on: Saccharomyces cerevisiae;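 note: PSI is a weighted mean of sequencing reads over stability bins, variants kept only with over 10 reads, mCherry proximal and sfGFP distal, peptide attached via GGGS linker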
- TEST METHOD NOTES: protein stability index of tFT-peptide fusion (C-terminal peptide) (PSI (0-1 scale)); higher = more stable (slower turnover)
- ASSAY CONDITIONS: genetic background: wild type; temperature: 30 C
RESULT TYPE: protein stability index

INSERT INTO results (sequence, subject_of_test, result_type, recorded_value) VALUES
  ('FILFSEMFASSV', 'Saccharomyces cerevisiae', 'protein stability index', 0.26),
  ('ASYSFLSFCNRV', 'Saccharomyces cerevisiae', 'protein stability index', 0.631),
  ('GLQIERAVGIRH', 'Saccharomyces cerevisiae', 'protein stability index', 0.708),
  ('GLGWPPGEARRV', 'Saccharomyces cerevisiae', 'protein stability index', 0.621),
  ('GWLGPGCVGRMQ', 'Saccharomyces cerevisiae', 'protein stability index', 0.733),
  ('CPCPSHLLLRSP', 'Saccharomyces cerevisiae', 'protein stability index', 0.659),
  ('RGTDSRERIKRR', 'Saccharomyces cerevisiae', 'protein stability index', 0.721),
  ('CCPVTLLLPFPL', 'Saccharomyces cerevisiae', 'protein stability index', 0.606),
  ('LRIILPPLAQPE', 'Saccharomyces cerevisiae', 'protein stability index', 0.639),
  ('ASVSVWLVFSGG', 'Saccharomyces cerevisiae', 'protein stability index', 0.594),
  ('RRAKMHSRRSLA', 'Saccharomyces cerevisiae', 'protein stability index', 0.648),
  ('DGWKERDSGVVG', 'Saccharomyces cerevisiae', 'protein stability index', 0.701),
  ('AVLGWAGGGWAG', 'Saccharomyces cerevisiae', 'protein stability index', 0.694),
  ('KVGLGVNSLFTG', 'Saccharomyces cerevisiae', 'protein stability index', 0.745),
  ('PPPPPAIPRRRT', 'Saccharomyces cerevisiae', 'protein stability index', 0.678),
  ('LRPRPPTLPPSR', 'Saccharomyces cerevisiae', 'protein stability index', 0.638),
  ('GHSNVTSQIRRG', 'Saccharomyces cerevisiae', 'protein stability index', 0.643),
  ('IQAVSRDYVELR', 'Saccharomyces cerevisiae', 'protein stability index', 0.652),
  ('SPPPTSHPSAPP', 'Saccharomyces cerevisiae', 'protein stability index', 0.638),
  ('LSPRSSGCPRWF', 'Saccharomyces cerevisiae', 'protein stability index', 0.677),
  ('MESAGVGRVVWR', 'Saccharomyces cerevisiae', 'protein stability index', 0.654),
  ('ALASPGLLVFTR', 'Saccharomyces cerevisiae', 'protein stability index', 0.673),
  ('ERVWRAALAPVV', 'Saccharomyces cerevisiae', 'protein stability index', 0.618),
  ('LFLSAFFYLLVW', 'Saccharomyces cerevisiae', 'protein stability index', 0.284),
  ('RLFSPPVLATPS', 'Saccharomyces cerevisiae', 'protein stability index', 0.0111),
  ('CGVLPTPDRHHS', 'Saccharomyces cerevisiae', 'protein stability index', 0.631),
  ('KEHKSQRSRVWR', 'Saccharomyces cerevisiae', 'protein stability index', 0.719);
